# system under test: intracellular phosphorylation of EGFR (Tyr1068) in PC-9 cells (Homo sapiens, UniProt P00533, DEL746-750)
# Sequence (P00533 with tags, fused parts or gaps DEL746-750): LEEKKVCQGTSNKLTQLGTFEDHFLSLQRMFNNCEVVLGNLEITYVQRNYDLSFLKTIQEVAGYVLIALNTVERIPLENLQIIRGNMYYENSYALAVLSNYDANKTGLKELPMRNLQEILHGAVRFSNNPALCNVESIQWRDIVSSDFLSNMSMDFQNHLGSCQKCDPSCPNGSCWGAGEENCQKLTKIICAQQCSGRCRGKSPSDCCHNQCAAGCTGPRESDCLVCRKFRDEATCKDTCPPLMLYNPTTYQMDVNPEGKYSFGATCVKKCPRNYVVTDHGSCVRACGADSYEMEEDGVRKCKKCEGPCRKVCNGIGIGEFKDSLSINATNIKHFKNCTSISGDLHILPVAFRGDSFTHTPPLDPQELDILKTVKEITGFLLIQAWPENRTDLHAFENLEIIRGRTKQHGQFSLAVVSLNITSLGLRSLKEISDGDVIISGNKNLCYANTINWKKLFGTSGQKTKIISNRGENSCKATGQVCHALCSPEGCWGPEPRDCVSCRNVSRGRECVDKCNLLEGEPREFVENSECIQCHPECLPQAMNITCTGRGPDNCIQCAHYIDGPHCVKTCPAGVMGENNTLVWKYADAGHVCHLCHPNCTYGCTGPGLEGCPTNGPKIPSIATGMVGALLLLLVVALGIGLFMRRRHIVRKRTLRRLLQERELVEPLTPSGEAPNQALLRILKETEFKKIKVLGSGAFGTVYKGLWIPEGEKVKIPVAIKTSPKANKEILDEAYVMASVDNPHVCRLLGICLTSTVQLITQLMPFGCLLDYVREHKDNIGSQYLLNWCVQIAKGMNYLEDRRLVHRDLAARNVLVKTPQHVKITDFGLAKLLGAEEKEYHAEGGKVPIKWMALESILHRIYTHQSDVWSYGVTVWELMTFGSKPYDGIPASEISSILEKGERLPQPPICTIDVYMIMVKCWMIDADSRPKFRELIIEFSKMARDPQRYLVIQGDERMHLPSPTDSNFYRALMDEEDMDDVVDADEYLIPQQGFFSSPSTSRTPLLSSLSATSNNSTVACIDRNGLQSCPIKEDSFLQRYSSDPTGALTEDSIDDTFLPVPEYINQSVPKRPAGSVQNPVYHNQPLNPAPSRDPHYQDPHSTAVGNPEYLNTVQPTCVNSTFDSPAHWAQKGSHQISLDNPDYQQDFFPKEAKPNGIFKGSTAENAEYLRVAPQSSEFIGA
# test description: PC-9 pEGFR AlphaLISA assay
# cond: 4 hours incubation, read-out: Phos EGFR PC9 IC50
pIC50: −log10 of the molar value.
endpoint name: pIC50

INSERT INTO measurements (compound, value_measured) VALUES
  ('Cn1cc(-c2cc(OCC3COC3)c3c(Nc4ccc5ncsc5c4)ncnc3c2)cn1', '7.30 to 8.00'),
  ('CN1CC[C@@H](Nc2cc3c(Nc4ccc5ncsc5c4)ncnc3cc2-c2cnn(C)c2)[C@H](F)C1 (single isomer, unassigned) [Example 326]', '≥ 8.00'),
  ('C[C@@H](Oc1cc(N2CC3(COC3)C2)cc2ncnc(Nc3ccc4ncsc4c3)c12)C1COC1', '≥ 8.00'),
  ('Cn1cc(-c2cc(OC3CCCOC3)c3c(Nc4ccc5ncsc5c4)ncnc3c2)cn1 (single isomer, unassigned) [Example 7]', '7.30 to 8.00'),
  ('CN1CC[C@@H](Oc2cc(-c3cnn(C)c3)cc3ncnc(Nc4ccc5ncsc5c4)c23)C1', '7.30 to 8.00');

Input line: Give pIC50 for CN1CC[C@@H](F)[C@@H](Oc2cc(-c3cnn(C)c3)cc3ncnc(Nc4ccc5ncsc5c4)c23)C1 (single isomer, unassigned) [Example 162]
Output line: 7.30 to 8.00

Input line: Given CCN1CCC(Oc2cc(-c3cnn(C)c3)cc3ncnc(Nc4ccc5ncsc5c4)c23)C1=O (racemic) , respond with its pIC50.
Output line: ≥ 8.00
